# Tested on: SK-MEL-2 melanoma
Mark one answer only. Choices: active, inactive

Worked cases, answers included:
# molecule, target desc, class
rows = [
    ("COc1ccc(/C=C/c2c(C(=O)/C=C/c3ccc(C(F)(F)F)cc3)c(C)nc3ccccc23)cc1", "SK-MEL-2 melanoma", "inactive"),
    ("O=C1/C(=C/c2ccc(F)cc2)CN(C(=O)CCN2CCC(=NO)CC2)C/C1=C\\c1ccc(F)cc1", "SK-MEL-2 melanoma", "inactive"),
    ("NC(=O)c1ccc(Oc2nccc(-c3c(-c4ccc(F)cc4)ncn3C3CCNCC3)n2)cc1", "SK-MEL-2 melanoma", "inactive"),
    ("N#CC1=C(N)Oc2c(ccc3ccccc23)C1c1cc(=O)oc2ccc(Cl)cc12 (stereo not given)", "SK-MEL-2 melanoma", "inactive"),
    ("O=C(NNc1ccc(Cl)cc1)C1CCC(CNS(=O)(=O)c2ccccc2Cl)CC1 (stereo not given)", "SK-MEL-2 melanoma", "inactive"),
    ("O=C(/C=C/C=C/c1ccccc1)c1ccco1", "SK-MEL-2 melanoma", "inactive"),
    ("COc1ccc(C(=O)c2cc(C)c(OC)c(C)c2)c(OC)c1NC(C)=O", "SK-MEL-2 melanoma", "inactive"),
    ("Cc1ccc(-c2nc(/C=N/Nc3cc(C)nc4ccc(Cl)cc34)c(C)o2)cc1", "SK-MEL-2 melanoma", "inactive"),
]

Q: Short answer needed: outcome of this test for `CN=C1C=CC(=C(c2ccc(N(C)C)cc2)c2ccc(N(C)C)cc2)C=C1` ?
Ans: active

Q: Short answer needed: outcome of this test for `CCCc1cc(=O)n2c(C(=O)Nc3ccc(F)cc3)c(C(=O)Nc3ccc(F)cc3)sc2n1` ?
Ans: inactive

====

Exercise: for every item that follows, state its recorded TGI.
# Tested on: T-47D breast
# test name: NCI tumour cell line growth inhibition, 48 h

# return TGI for each item in the list
1. CCCc1cc(=O)n2c(C(=O)Nc3ccc(F)cc3)c(C(=O)Nc3ccc(F)cc3)sc2n1
2. O=C1/C(=C/c2ccc(F)cc2)CN(C(=O)CCN2CCC(=NO)CC2)C/C1=C\c1ccc(F)cc1
3. CC(C)(C)C1=C(Br)C(O)(C(C)(C)C)OP1(=O)c1ccccc1 (stereo unspecified)
4. OC(NN=C1CCCC1)(C(F)(F)Cl)C(F)(F)Cl
5. CCOC(=O)c1cc(Br)c(-c2onc(C)c2Br)[nH]1

Ans:
["> 160 µM", "9.55 µM", "> 100 µM", "> 10 µM", "> 100 µM"]

====

# System: UACC-257 melanoma
# test name: NCI tumour cell line growth inhibition, 48 h
Exercise: for every item that follows, state its recorded TGI.

Some compounds with recorded TGI:
# compound, TGI
data = [
    ("N#Cc1c(N)nc2c3c1NC(=O)C(C(N)=O)C3c1ccccc1O2 (configuration not stated)", "> 100 µM"),
    ("COC1=CC(C2c3cc4c(cc3[C@@H](Nc3ccc(F)cc3)C3COC(=O)[C@H]23)OCO4)=CC(=O)C1=O (some centres not stated)", "> 63.9 µM"),
    ("O=C(/C=C/C=C/c1ccccc1)c1ccco1", "60.7 µM"),
    ("CCOC(=O)c1cc(-c2ccc(-c3cc(C(=O)OCC)c(C#N)c(N)c3C#N)cc2)c(C#N)c(N)c1C#N", "> 100 µM"),
]

# return TGI for each item in the list
1. C1CCCCc2nc3c(nc2CCC1)c1nc2c(nc1c1nc4c(nc31)CCCCCCCC4)CCCCCCCC2
2. CCOC(=O)Nc1ccc(S(=O)(=O)Nn2cnnc2)cc1
3. COC(=O)c1c(-c2cccs2)oc(-c2cccs2)c1C(=O)OC
4. C#CC1=CC(=O)C(OC)=CC1=O
5. Cc1ccc(C)c(N2C(=O)C(=O)C(c3nc4ccccc4o3)C(=O)C2=O)c1
6. O=C(OCc1ccccc1)N1CCNCCNCCN(C(=O)OCc2ccccc2)CCNCC1
7. CCCCCCSSC(=S)N(CC)CC
8. N#CC1=C(N)Oc2c(ccc3ccccc23)C1c1cc(=O)oc2ccc(Cl)cc12 (configuration not stated)

Ans:
1. > 100 µM
2. > 100 µM
3. > 95.3 µM
4. > 100 µM
5. > 100 µM
6. 32 µM
7. > 100 µM
8. 91.7 µM

# return TGI for each item in the list
1. Cc1cccc(C(=O)O)c1C(=O)c1cccc2ccccc12
2. CCCc1cc(=O)n2c(C(=O)Nc3ccc(F)cc3)c(C(=O)Nc3ccc(F)cc3)sc2n1
3. OC(NN=C1CCCC1)(C(F)(F)Cl)C(F)(F)Cl
4. CCOC(=O)CCC(C(=O)OCC)n1nnc2cc(Nc3c(C)[n+]([O-])c4cc(F)c(OCC)cc4[n+]3[O-])ccc21 (configuration not stated)
5. Cc1c2ccncc2c(C)c2c1[nH]c1ccc(OCCN(C)C)cc12
6. O=C(O)c1ccccc1C1c2ccccc2Oc2ccccc21
7. Nc1nc2c(C(=O)NCc3cccs3)nnn2c2cccc(Cl)c12

Ans:
["> 100 µM", "62.8 µM", "> 10 µM", "> 100 µM", "2.07 µM", "> 100 µM", "> 100 µM"]

# return TGI for each item in the list
1. Cc1nc(Nc2ccccc2Cl)sc1C(=O)CC(=O)C(N)=O
2. COc1cccc(C2c3cc4c(cc3OC(Nc3ccccc3)C2C)OCO4)c1O (configuration not stated)
3. CCN(CC)CCCC(C)Nc1cc(-c2cccc(OC(F)(F)F)c2)nc2ccc(N3CCCC3)cc12 (configuration not stated)

Ans:
> 100 µM
> 57.8 µM
47.7 µM
